Biological target: human RAR-related Orphan Receptor beta (RORb), RORB (gene 6096)
Test: ATG_RORb_TRANS: Attagene TRANS-FACTORIAL HepG2 Assay for human RAR-related Orphan Receptor beta (RORb) (AID 2283010)
Inconclusive results are not listed. Active and inactive are the calls of the source. How the source made its calls: active means hit-call score of the fitted dose curve at least 0.9, where 1 is the maximum; inconclusive means response in the unintended direction; inactive means score below 0.9.
measured-attribute: outcome

* NCC1(Cc2noc(=O)[nH]2)CCCCC1 | inactive
* Cc1cc(=O)[nH]c(=S)[nH]1 | inactive
* COc1ccc2c(c1)c(CC(=O)O)c(C)n2C(=O)c1ccc(Cl)cc1 | inactive
* O=c1[nH]cc(F)c(=O)[nH]1 | inactive

* * *

Assay: ATG_PPRE_CIS: Attagene CIS-FACTORIAL HepG2 Assay for human Peroxisome Proliferator-activated Response Element (PPRE) (AID 2282958)
Details: HepG2 PPRE cis-element reporter, Attagene transcription factor profiling; actives raise or lower the signal
Calls of active or inactive are those of the source. The calls were made as follows: active = hit-call score of the fitted dose curve at least 0.9, where 1 is the maximum; inactive = score below 0.9.
Pick from active, inactive when you respond.

Answered cases to consult:
* CCCCCC(=O)O | inactive
* CCCc1cc(=O)[nH]c(=S)[nH]1 | inactive
* CC=Cc1ccc(O)c(OC)c1 | inactive
* O=C(N[C@@H](Cc1ccccc1)[C@@H](O)C(=O)N1C[C@@H](O)[C@@H](O)C1)c1cc2cc(Cl)ccc2[nH]1 | inactive
* CN[C@H]1CC[C@@H](c2ccc(Cl)c(Cl)c2)c2ccc(S(N)(=O)=O)cc21 | inactive
* CCNc1cccc(C)c1 | inactive

[ask] // outcome(item) with item = CC1=C(/C=C/C(C)=C/C=C/C(C)=C/CO)C(C)(C)CCC1
[reply] active

[ask] // outcome(item) with item = COc1cc(/C=C/C(=O)CC(=O)/C=C/c2ccc(O)c(OC)c2)ccc1O
[reply] inactive

[ask] // outcome(item) with item = Cc1ccc(C(C)C)c(O)c1
[reply] inactive

[ask] // outcome(item) with item = CNC(=O)[C@H]1O[C@@H](n2cnc3c(NCc4cc(Cl)ccc4OCc4cc(C)no4)ncnc32)[C@H](O)[C@@H]1N
[reply] inactive
